Test: Substrate depletion in incubations with pooled rat liver microsomes
Type: in vitro ADME, rat (Sprague–Dawley)
Details: Sprague-Dawley, rat, pH 7.4; liver, present study
endpoint: Km

Answer with reported Km of C[C@H]1C(=O)O[C@@H]2CCN3CC=C(COC(=O)[C@](C)(O)[C@]1(C)O)[C@H]23
9.2 µM

* * *

Assay: Fraction unbound in rat serum by rapid equilibrium dialysis (RED)
Format: in vitro ADME
Conditions: 37 °C, read-out: fub, in vivo (fraction unbound)
Method: The fub,in vivo was determined by rapid equilibrium dialysis (RED) (Waters et al. [2008]). […] The device was sealed with tape and incubated at 37 °C on a shaker at 250 rpm. […] After putting the mixtures on ice for 30 min, the mixtures were centrifuged at 15,000 g for 30 min at 4 °C, and the supernatants were diluted five times in 90% (v/v) acetonitrile and analyzed by LC–MS as described above. […]
endpoint: fraction unbound at 5 h, 150 µM

Answer with reported fraction unbound at 5 h, 150 µM of C[C@H]1C(=O)O[C@@H]2CCN3CC=C(COC(=O)[C@](C)(O)[C@]1(C)O)[C@H]23 [Monocrotaline]
0.53
